# Assay method text: First-in-human phase 1 study: plasma pharmacokinetics of Compound 1
# Type: in vivo
# Details: both sexes, human, plasma, intravenous, 11 mg/kg, human plasma, single dose, 24 hours, Cohort 3 (11 mg/kg), compartmental (2) analysis, ± SE
# Excerpt: The initial, first-in-human (FIH) phase 1 study was a double-blind, randomized, placebo-controlled, parallel-group, single- and multiple-dose-escalation study to assess the safety, tolerability, and pharmacokinetics of Compound 1 administered IV to healthy adult volunteers. In addition, the design of this FIH phase 1 study provided rationale and support for dosing for the proposed phase 2 study in patients with cUTI (see FIG. 11). […]

Smiles repr: CN[C@@H]1[C@@H](O)[C@@H](O[C@@H]2[C@@H](O)[C@H](O[C@H]3OC(CNCCO)=CC[C@H]3N)[C@@H](N)C[C@H]2NC(=O)[C@@H](O)CCN)OC[C@]1(C)O
Output unit: µg·h/mL
AUC(0-inf): 186

---

# Assay method text: First-in-human phase 1 study: plasma pharmacokinetics of Compound 1
# Assay type: in vivo
# Details: both sexes, human, plasma, intravenous, 1 mg/kg, human plasma, single dose, 48 hours, Cohort 1a (1 mg/kg), noncompartmental analysis, ± SD
Reported property: Cmax (ng/mL)

Smiles repr: CN[C@@H]1[C@@H](O)[C@@H](O[C@@H]2[C@@H](O)[C@H](O[C@H]3OC(CNCCO)=CC[C@H]3N)[C@@H](N)C[C@H]2NC(=O)[C@@H](O)CCN)OC[C@]1(C)O
Value observed: 7000

---

# Assay method text: First-in-human phase 1 study: plasma pharmacokinetics of Compound 1
# Format: in vivo
# Details: both sexes, human, plasma, intravenous, 7 mg/kg, human plasma, single dose, 48 hours, Cohort 2 (7 mg/kg), noncompartmental analysis, ± SD
# Text: The initial, first-in-human (FIH) phase 1 study was a double-blind, randomized, placebo-controlled, parallel-group, single- and multiple-dose-escalation study to assess the safety, tolerability, and pharmacokinetics of Compound 1 administered IV to healthy adult volunteers. In addition, the design of this FIH phase 1 study provided rationale and support for dosing for the proposed phase 2 study in patients with cUTI (see FIG. 11). […]

Compound: CN[C@@H]1[C@@H](O)[C@@H](O[C@@H]2[C@@H](O)[C@H](O[C@H]3OC(CNCCO)=CC[C@H]3N)[C@@H](N)C[C@H]2NC(=O)[C@@H](O)CCN)OC[C@]1(C)O [Compound 1]
clearance, mL/min/kg: 1.35

---

# Assay method text: Pharmacokinetics of Compound 1 after single bolus IV injection in rats
# Assay type: in vivo, Sprague Dawley rats
# Details: Sprague Dawley, rat, plasma, iv, 10 mg/kg, 10 mg/kg single bolus IV, Rat 101, read-out: t1/2 (converted)
Reported property: half-life (min)

Smiles repr: CN[C@@H]1[C@@H](O)[C@@H](O[C@@H]2[C@@H](O)[C@H](O[C@H]3OC(CNCCO)=CC[C@H]3N)[C@@H](N)C[C@H]2NC(=O)[C@@H](O)CCN)OC[C@]1(C)O
Value observed: 57

---

# Assay method text: First-in-human phase 1 study: plasma pharmacokinetics of Compound 1
# Format: in vivo
# Details: both sexes, human, plasma, intravenous, 7 mg/kg, human plasma, single dose, 24 hours, Cohort 2 (7 mg/kg), compartmental (2) analysis, ± SE; read-out: t1/2 alpha (converted)

Compound: CN[C@@H]1[C@@H](O)[C@@H](O[C@@H]2[C@@H](O)[C@H](O[C@H]3OC(CNCCO)=CC[C@H]3N)[C@@H](N)C[C@H]2NC(=O)[C@@H](O)CCN)OC[C@]1(C)O [Compound 1]
half-life: 42 min

---

# Assay method text: Pharmacokinetics of Compound 1 after single bolus IV injection in beagle dogs (plasma)
# Type: in vivo
# Details: male, beagle, dog, plasma, iv, 10 mg/kg, beagle dogs, 10 mg/kg single bolus IV; Dog 602; read-out: MRT0-∞
# Description: Male CD-1 mice, Sprague Dawley rats, and beagle dogs were administered Compound 1 intravenously. Compound 1 was preformulated as a sterile isotonic solution of 10 mg/mL in PBS. […] Samples were centrifuged, and plasma was collected and transferred into a new tube and frozen at −80° C. until they were analyzed. Blood, urine, and kidney samples collected over 24 hours were analyzed for Compound 1 levels using LC-MS/MS. […]

Smiles repr: CN[C@@H]1[C@@H](O)[C@@H](O[C@@H]2[C@@H](O)[C@H](O[C@H]3OC(CNCCO)=CC[C@H]3N)[C@@H](N)C[C@H]2NC(=O)[C@@H](O)CCN)OC[C@]1(C)O
Output unit: h
MRT inf: 1.32

---

# Assay method text: Pharmacokinetics of Compound 1 after single bolus IV injection in rats
# Type: in vivo, Sprague Dawley rats
# Details: Sprague Dawley, rat, plasma, iv, 10 mg/kg, 10 mg/kg single bolus IV, Rat 101
Reported property: C0 (ng/mL)

Smiles repr: CN[C@@H]1[C@@H](O)[C@@H](O[C@@H]2[C@@H](O)[C@H](O[C@H]3OC(CNCCO)=CC[C@H]3N)[C@@H](N)C[C@H]2NC(=O)[C@@H](O)CCN)OC[C@]1(C)O
Value observed: 41700

---

# Assay method text: Pharmacokinetics of Compound 1 after single bolus IV injection in rats
# Assay type: in vivo, Sprague Dawley rats
# Details: Sprague Dawley, rat, plasma, iv, 10 mg/kg, 10 mg/kg single bolus IV, Rat 102, read-out: t1/2 (converted)
# Method: Male CD-1 mice, Sprague Dawley rats, and beagle dogs were administered Compound 1 intravenously. Compound 1 was preformulated as a sterile isotonic solution of 10 mg/mL in PBS. […] Samples were centrifuged, and plasma was collected and transferred into a new tube and frozen at −80° C. until they were analyzed. Blood, urine, and kidney samples collected over 24 hours were analyzed for Compound 1 levels using LC-MS/MS. […]
Reported property: half-life (min)

Smiles repr: CN[C@@H]1[C@@H](O)[C@@H](O[C@@H]2[C@@H](O)[C@H](O[C@H]3OC(CNCCO)=CC[C@H]3N)[C@@H](N)C[C@H]2NC(=O)[C@@H](O)CCN)OC[C@]1(C)O
Value observed: 55.8

---

# Assay method text: Pharmacokinetics of Compound 1 after single bolus IV injection in mice
# Assay type: in vivo, CD-1 mice
# Details: male, CD-1, mouse, plasma, 10 mg/kg single bolus IV, read-out: Vss
# Description: Male CD-1 mice, Sprague Dawley rats, and beagle dogs were administered Compound 1 intravenously. Compound 1 was preformulated as a sterile isotonic solution of 10 mg/mL in PBS. […] Samples were centrifuged, and plasma was collected and transferred into a new tube and frozen at −80° C. until they were analyzed. Blood, urine, and kidney samples collected over 24 hours were analyzed for Compound 1 levels using LC-MS/MS. […]

Compound: CN[C@@H]1[C@@H](O)[C@@H](O[C@@H]2[C@@H](O)[C@H](O[C@H]3OC(CNCCO)=CC[C@H]3N)[C@@H](N)C[C@H]2NC(=O)[C@@H](O)CCN)OC[C@]1(C)O [Compound 1]
Vd: 0.34 L

---

# Tested on: rat kidney
# Assay method text: Rat nephrotoxicity model: kidney histopathology (H&E)
# Type: in vivo, Sprague-Dawley rats
# Details: rats, 14 d once-daily, 30 mg/kg
# Histopathology score (0 to 5 Scale): Casts per record follows
Reported property: Histopathology score (0 to 5 Scale): Casts

Compound: CN[C@@H]1[C@@H](O[C@H]2O[C@H](CO)[C@@H](N)[C@H](O)[C@H]2O)OC2C[C@@H](N)[C@@H](O[C@H]3[C@H](O)[C@@H](O)[C@H](N)C[C@@H]3N)OC2[C@@H]1O (stereo partly shown)
System: rat kidney
Value observed: 0 +/− 0

Compound: NC[C@@H]1O[C@H](O[C@H]2[C@@H](O)[C@H](O[C@@H]3[C@@H](O)[C@H](N)C[C@H](N)[C@H]3O[C@H]3O[C@H](CO)[C@@H](O)[C@H](O)[C@H]3N)O[C@@H]2CO)[C@H](N)[C@@H](O)[C@@H]1O
System: rat kidney
Value observed: 0 +/− 0

Compound: NCC[C@H](O)C(=O)N[C@@H]1C[C@H](N)[C@@H](O[C@H]2O[C@H](CN)[C@@H](O)[C@H](O)[C@H]2O)[C@H](O)[C@H]1O[C@H]1O[C@H](CO)[C@@H](O)[C@H](N)[C@H]1O
System: rat kidney
Value observed: 0 +/− 0

Compound: NC[C@H]1O[C@H](O[C@H]2[C@H](O)[C@@H](O[C@H]3O[C@H](CO)[C@@H](O)[C@H](N)[C@H]3O)[C@H](N)C[C@@H]2N)[C@H](N)C[C@@H]1O
System: rat kidney
Value observed: 0.8 +/− 0.4

---

# Assay method text: Urine concentration analysis / urinary recovery of Compound 1 in beagle dogs
# Type: in vivo
# Details: male, beagle, dog, urine, iv, 10 mg/kg, 10 mg/kg IV, Dog 6002, 6 hr, read-out: Cmpd 1 urine concentration
# Procedure: Male CD-1 mice, Sprague Dawley rats, and beagle dogs were administered Compound 1 intravenously. Compound 1 was preformulated as a sterile isotonic solution of 10 mg/mL in PBS. […] Samples were centrifuged, and plasma was collected and transferred into a new tube and frozen at −80° C. until they were analyzed. Blood, urine, and kidney samples collected over 24 hours were analyzed for Compound 1 levels using LC-MS/MS. […]

Smiles repr: CN[C@@H]1[C@@H](O)[C@@H](O[C@@H]2[C@@H](O)[C@H](O[C@H]3OC(CNCCO)=CC[C@H]3N)[C@@H](N)C[C@H]2NC(=O)[C@@H](O)CCN)OC[C@]1(C)O
Output unit: µg/mL
concentration at 6 h: 505

All values here come from patent US20120208781A1.
